Source listed as ChEMBL document CHEMBL4823320.

Hi there, I'd appreciate the recorded Activity for every entry that follows.
Test system: Severe acute respiratory syndrome coronavirus 2
Test: Inhibition of SARS-CoV-2 Main protease assessed as residual enzyme activity at 20 uM by FRET assay relative to control
Hi! Could you send only the number? It should be in %, unit omitted.

Hey, Severe acute respiratory syndrome coronavirus 2 data for O=C(Nc1ccccc1)[C@@H]1CCCCN1C(=O)c1cc2cc(O)c(O)cc2o1 : Activity came out at 57

Tested on Severe acute respiratory syndrome coronavirus 2: O=C(Nc1nc2cc(O)c(O)cc2s1)c1ccccc1 . Observed Activity: 90

Summary line: O=C(Nc1ccccc1)[C@@H]1CCCN1C(=O)c1cc2cc(O)c(O)cc2o1 , Severe acute respiratory syndrome coronavirus 2, reported Activity = 99

Observed Activity, Severe acute respiratory syndrome coronavirus 2, Cc1ccc(S(=O)(=O)N2CCC[C@@H]2C(=O)Nc2nc3cc(O)c(O)cc3s2)cc1 : 94

Summary line: O=C(Nc1nc2cc(O)c(O)cc2s1)C(c1ccccc1)c1ccccc1 , Severe acute respiratory syndrome coronavirus 2, reported Activity = 77

Item O=C(Nc1nc2cc(O)c(O)cc2s1)c1ccc(I)cc1 was tested on Severe acute respiratory syndrome coronavirus 2; the reported Activity is 89

Test item O=C(Nc1ccccc1)c1cc2cc(O)c(O)cc2o1 ; Severe acute respiratory syndrome coronavirus 2; reported Activity was 52
